# Tested on: Wolbachia pipientis
# measurement protocol: Anti-Wolbachia Cell-Based Screen
# Format: functional
# Set-up: scale not given: in the data most compounds retested in dose-response had high values
# measurement context: 5 µM
About 13,000 (27%) of roughly 48,000 compounds showed an effect of 50% or more. This is one part of the list.
# Percent Effect per entry
Reply with just the number (in %).

Below are worked cases with known answers.
Entry under review: O=C(CCc1cccs1)N1CCC(N2CCNC2=O)CC1 . Reported Percent Effect?
8.278

Entry under review: c1ccc(C(CC2CN(Cc3c[nH]cn3)CCO2)c2ccccc2)cc1 (centres undefined) . Reported Percent Effect?
106.4

Entry under review: CCN(CC1CN(Cc2ncc[nH]2)CCO1)c1cccnn1 (centres undefined) . Reported Percent Effect?
4.051

Now look at this one.
Entry under review: Cc1ccc(F)cc1NC(=O)C1CCCN1C(=O)C(C)C (centres undefined) . Reported Percent Effect?
-3.665
